Cited source: patent US8748412B2

Recorded activation at 10 µM for the following molecules
# measured-on: human GLP1R (Homo sapiens, UniProt P43220)
# Construct: expressed in transfected cells; host or cells: CHO cells (ATCC), transient transfection with pCMV-human GLP1R
# Sequence (P43220 24-463): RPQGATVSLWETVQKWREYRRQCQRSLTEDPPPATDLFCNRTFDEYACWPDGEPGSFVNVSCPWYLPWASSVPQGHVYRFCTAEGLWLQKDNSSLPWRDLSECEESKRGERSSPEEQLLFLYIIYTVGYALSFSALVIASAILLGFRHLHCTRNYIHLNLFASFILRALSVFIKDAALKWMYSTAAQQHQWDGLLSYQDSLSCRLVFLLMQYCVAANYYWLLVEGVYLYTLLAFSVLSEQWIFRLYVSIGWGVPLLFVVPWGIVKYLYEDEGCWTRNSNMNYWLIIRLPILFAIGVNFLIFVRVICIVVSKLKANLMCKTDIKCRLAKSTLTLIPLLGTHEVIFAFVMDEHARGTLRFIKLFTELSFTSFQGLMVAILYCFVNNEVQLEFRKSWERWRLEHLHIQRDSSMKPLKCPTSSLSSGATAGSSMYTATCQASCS
# protocol-summary: Human GLP-1 receptor transfected cell assay (MRE/CRE-luciferase reporter gene, agonist activity)
# Assay type: cell-based
# condition-description: 6 h; conc. 10 μM; percentage of the activity of the control; read-out: Agonist Activity

CC(C)(C)OC(=O)Nc1ccc(-c2nc(-c3ccc(CC(NC(=O)Nc4ccc(-c5cccc(Cl)c5)cn4)C(=O)O)cc3F)no2)cc1 (stereo not drawn) [Compound 13V] :: > 60%
CC(C)(C)OC(=O)Nc1ccc(-c2nc(-c3ccc(CC(NC(=O)N4CCN(c5cccc(C(F)(F)F)c5)CC4)C(=O)O)cc3F)no2)cc1 (stereo not drawn) [Compound 12F] :: > 60%

Please find the next molecule below.
Please report activation at 10 µM for the following molecule: CC(C)(C)OC(=O)Nc1ccc(-c2nc(-c3ccc(CC(NS(=O)(=O)c4ccc(C(F)(F)F)cc4[N+](=O)[O-])C(=O)O)cc3F)no2)cc1 (stereo not drawn) [Compound 11M]
> 60%
